Here, each record is paired with measured switch fluorescence ratio data.
System: ATP;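 further: ATP exposure 15 min at 22 °C before imaging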
experiment_description: switch fluorescence ratio, 500 uM ATP over buffer (Cy3 cluster intensity, sum of 5 cycles each) (fold (ratio)); higher = stronger signal-on switching upon ATP binding; sequences stand for … in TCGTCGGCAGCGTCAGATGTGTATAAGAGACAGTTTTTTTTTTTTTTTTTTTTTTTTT…TC
measurement_setup: aptamer strand: ATP DNA aptamer (quencher-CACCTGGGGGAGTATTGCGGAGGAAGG + anchor), 100 nM annealed; ATP concentration: 500 uM
readout_label: switch fluorescence ratio

* TTTTATGGGT | 0.992
* TGGGTCGGGT | 0.982
* CACAGTGAGT | 0.997
* TATAAAAATT | 1.02
* GCGGTAGTTT | 0.997
* TTTGGTTTGA | 1
* AATGAAAGCG | 1.01
* GGTTTGGTAG | 0.987
* AGTTTGGCGT | 1.01
* AGAGATGGTT | 0.979
* GATAGAAATT | 1.01
* AAGAGGTTTT | 1.01
* AATGTATGGG | 0.99
* CTGAGGCTGG | 0.993
* GCATGATGGG | 0.986
* TGAAATAATT | 0.979
* GGAGAATTAT | 0.991
* TGTCTCTGTC | 1.01
* TTTACGGTTG | 0.996
* TCACTCATTT | 1.01
* TCAAGTATCT | 1.02
* TTTTCGGTCA | 0.976
* AATGGTATGG | 0.982
* ACTCGCGGGA | 0.995
* AATCGCTTTG | 1.01
* TAAAAAAAAG | 1.01
* TAGGGGTCGG | 0.981
* TGCGGGTGAT | 0.986
* TTTTTGTAT | 0.979
* GATTTTTTGA | 1.01
* GGGACAGCCT | 1.01
* TATAGTGGAG | 1.02
* ATGTTTTACG | 0.988
* CAGTGGGACT | 0.974
* CTTAAAGGCC | 0.984
* CTGTCTTGA | 1
* CTTAGATCTG | 1
* CGTGTCACTT | 1.01
* ATTTGTTTCT | 0.999
* TCTTTCAAGT | 0.994
* ACGGCCTGTT | 1.02
* CAGGGGTCTG | 0.997
* AGTATTTGTA | 1
* GGTTTTTTAG | 0.996
* TTTAGCGTTT | 0.997
* TTCATAGTTC | 0.986
* TGTATACTTT | 1.02
* AAAAGTAGGA | 0.984
